- TEST SYSTEM: HLA-A*30:01
- PROTOCOL TEXT: IEDB peptide-MHC binding, purified MHC/competitive/radioactivity; filed as Kd, often an IC50 or EC50 that approximates it; bounds were set here for any values at or beyond the usual limits of such assays
- SETTINGS: source organism: Dengue virus 2 Jamaica/1409/1983
Readings of pKd for the listed sequences
pKd field: float, defined as -log10 of concentration (mol/L).

> print(dat)
   polymer.sequence  metric  number
1         RSTPFNMLK     pKd    7.69

API: the following record is the query input.
Per the record, IMAILCVPNA has pKd of 7.35

---

- TEST SYSTEM: HLA-B*08:01
- PROTOCOL TEXT: IEDB peptide-MHC binding, purified MHC/competitive/fluorescence; filed as Kd, often an IC50 or EC50 that approximates it; bounds were set here for any values at or beyond the usual limits of such assays
- SETTINGS: source organism: Mycobacterium tuberculosis C
pKd: −log10 of the molar value.
METRIC: pKd

Per the record, TIHLATAPK has pKd of ≤ 4.70

---

- TEST SYSTEM: HLA-A*26:01
- PROTOCOL TEXT: IEDB peptide-MHC binding, purified MHC/direct/fluorescence; filed as Kd, often an IC50 or EC50 that approximates it; bounds were set here for any values at or beyond the usual limits of such assays
- SETTINGS: source organism: Escherichia coli
pKd: −log10 of the molar value.
METRIC: pKd

Per the record, LAAPCRNAL has pKd of ≤ 4.70

---

- TEST SYSTEM: HLA-A*31:01
- PROTOCOL TEXT: IEDB peptide-MHC binding, purified MHC/competitive/radioactivity; filed as Kd, often an IC50 or EC50 that approximates it; bounds were set here for any values at or beyond the usual limits of such assays
- SETTINGS: source organism: Vaccinia virus WR
Readings of pKd for the listed sequences
pKd field: float, defined as -log10 of concentration (mol/L).

Use the examples below as a reference point.
> print(dat)
   polymer.sequence  metric  number
1        QLPKRGVRVR     pKd    5.27
2        FSTSAADIKR     pKd    4.95
3        IINFTISMRY     pKd    5.85

Per the record, LLRHYYNKR has pKd of 8.77

Per the record, EALEYLSELK has pKd of 4.75

Per the record, RVLFSIFYK has pKd of 9.06

Per the record, TSMMVILPDK has pKd of 6.34

Per the record, IISEEYLSK has pKd of 5.00

---

- TEST SYSTEM: HLA-B*40:01
- PROTOCOL TEXT: IEDB peptide-MHC binding, purified MHC/competitive/radioactivity; filed as Kd, often an IC50 or EC50 that approximates it; bounds were set here for any values at or beyond the usual limits of such assays
- SETTINGS: source organism: Mammarenavirus juninense
pKd: −log10 of the molar value.
METRIC: pKd

Per the record, MDYLILKNL has pKd of ≤ 4.47

---

- TEST SYSTEM: HLA-A*02:03
- PROTOCOL TEXT: IEDB peptide-MHC binding, purified MHC/competitive/fluorescence; filed as Kd, often an IC50 or EC50 that approximates it; bounds were set here for any values at or beyond the usual limits of such assays
- SETTINGS: source organism: Francisella tularensis subsp. tularensis FSC198
pKd: −log10 of the molar value.
METRIC: pKd

Per the record, FQVNRFTGY has pKd of ≤ 4.70
